Assay: chemical genetic growth profiling, strain panel (AID 1159580);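 note: tested at 20 µM; growth read once vehicle control cultures reached saturation at 30 °C; 1 = growth at the plate median or of vehicle wells; lower values mean less growth of the strain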
Details: S. cerevisiae deletion strains, growth OD, locus YPL051W, strain arl3, stronger effect = lower value
In all, about 5,500 compounds went through this assay and about 2,000 (36%) were called active. Inconclusive results (about 18%) are left out. This is one part of the list.
parameter: normalized growth
Write the number on its own, no unit after it.

Some solved entries appear below for comparison.
{"molecule": "CC(=O)NS(=O)(=O)c1ccc(N)cc1", "normalized growth": 1.02}
{"molecule": "CC(=O)Nc1c(I)cc(I)c(C(=O)O)c1I", "normalized growth": 0.981}

// next item, normalized growth requested
Ask: normalized growth for `COc1cc(O)c2c(c1)C(=O)c1cc(C)cc(O)c1C2=O` ?
Result: 0.939
